From: the supplement of paper PMC11417369

# System: PfSIP2 AP2 domain 1 (GST-tagged)
# protocol-summary: gcPBM binding intensity (ln(normalized median fluorescence intensity)); higher = stronger DNA binding
In all, about 25,000 sequences were measured (“ln(normalized median fluorescence intensity)”: median about 7.1, highest 2% from about 10 on). The entries come from a sample that favours the highest values as a whole.
Where gcPBM binding intensity (ln) equals or exceeds 10, the correct label is True; where it does not, the label is False.

>>> assigned_class("TATACAATATAAAATACACACGCACCCAAAAAAAAA [CACACA_site9174]")
"True"
>>> assigned_class("CACCCATAAATATACACACGCACAACACAAAATAAA [CACACA_site2903]")
"False"
>>> assigned_class("AATGTACACGCACCCACACACAAACAAATATAAATA [CACACA_site7319]")
"True"
>>> assigned_class("ATTATATATATATTATGTACATATATTGAAGTGGAT [XGTACX_site5916]")
"False"

====

# Tested on: PfSIP2 AP2 domain 1 (GST-tagged)
# protocol-summary: gcPBM binding intensity (ln(normalized median fluorescence intensity)); higher = stronger DNA binding
The full ranking holds about 25,000 sequences; the median of “ln(normalized median fluorescence intensity)” is about 7.1, and the highest 2% start at about 10. The sample holds the highest values, similar sequences and a random draw of the others, so the mix is not that of the screen.
Where gcPBM binding intensity (ln) equals or exceeds 8, the correct label is 1.0; where it does not, the label is 0.0.

>>> assigned_class("ATGAATAAATAGGTCACACACAAATATATATAAATA [CACACA_site2416]")
0.0
>>> assigned_class("TATTATATATTAAATGCATGTAAAAATAATATTAAA [TGCATGCA_site643]")
0.0
>>> assigned_class("CCTTAAAATAAGATATGTACGCAAAGGAAAACAAAG [XGTACX_site6057]")
0.0
>>> assigned_class("GATAAAATCACTGGTGCATGTAGATATATAATATTA [TGCATGCA_site589]")
1.0
>>> assigned_class("GAAAAATATATTCTGGTGCATGAATAAAATCATAAA")
1.0

====

# Test system: PfSIP2 AP2 domain 1 (GST-tagged)
# protocol-summary: gcPBM binding intensity (ln(normalized median fluorescence intensity)); higher = stronger DNA binding
The full ranking holds about 25,000 sequences; the median of “ln(normalized median fluorescence intensity)” is about 7.1, and the highest 2% start at about 10. Many of the other results were omitted from the sample, so the highest values are more common in it than they were.
readout: gcPBM binding intensity (ln)

>>> readout_number("AACACATACATATATGCACACATTTTATTCCATTAT [CACACA_site2834]")
8.05
>>> readout_number("TTATACCATATTTATAGTACGTACAAATAAATCAAT [XGTACX_site4975]")
7.3
>>> readout_number("TTAAATAAAAGGTTTAGTACTTAAAATAAGAAATGA [XGTACX_site6341]")
6.91
>>> readout_number("AAAAAAAAAAAAAGTGCACACATAAAAATATGATCT [CACACA_site8090]")
11.2
>>> readout_number("AAAAAAACAACATGCACACGCACACCCAAAAAAAGC [CACACA_site72]")
7.96
>>> readout_number("TATGTATTAATGAGAACATGCAAAATAATAAACAAT [TGCATGCA_site362]")
7.24
>>> readout_number("AATATTTACAGACATGCGCACACATAAATAAATAAT [CACACA_site8760]")
8.81
>>> readout_number("TTATTTACTTATTGCACACATATAAAATATATTTAT [CACACA_site3101]")
7.74
>>> readout_number("TATTAATATTTACACACATGCGCACACATAAATAAA [TGCATGCA_site609]")
9.31
>>> readout_number("TTTTATATTTTAAGAGTGCATTTTATATCTTTTTCT")
8.74
>>> readout_number("AGGTAGAAAAAAGACACACACATTATGTATATATAT [CACACA_site377]")
7.6
>>> readout_number("TTCTATTTTTTAAAAGTGCATATTATAAATATATAT")
9.04
>>> readout_number("TATTTACACCCATGCGCACACATAAATAAATAATAG [CACACA_site5350]")
8.34
>>> readout_number("TTGTTCTTTTTTTTTTTATTTTTTAATTTGAAAAGA [CACACA_negctrl_site209]")
7.03
>>> readout_number("ATTATATCATCTAAAACATGCACACATATGTACTCT [TGCATGCA_site949]")
7.12
>>> readout_number("ATATATTTTAGGAGAGTGCATTTAATATTATTTAAT [GTGCAC_site9444]")
8.99
>>> readout_number("TTGTTCTTTTGAAAGGTGCAAAAGAAAAATAATTAA")
11.2
>>> readout_number("TACTATAAGATATATACACACAAGAAATACAAAACG [CACACA_site6764]")
7.53
>>> readout_number("AAAAAAAATTATATATGTACTTATTAATCCTTATAT [XGTACX_site1389]")
6.86
>>> readout_number("AAAAAAAAAAAAAAAGCACACATATAAATATGAATA [CACACA_site8391]")
7.5
>>> readout_number("AAAAAAAAAAAAAGCACACATATAAATATGAATAAA [CACACA_site1393]")
7.18
>>> readout_number("AAAAAAAAAACACACACATGCACATCATATTATATA [TGCATGCA_site133]")
7.03
>>> readout_number("TAATGTTGAGAATTTTGTACATATAGATCAATTTAT [XGTACX_site5426]")
6.84
>>> readout_number("GTAAGAAAGAAAGGAAGTACGTAAGAAAGTAAGAAC [XGTACX_site1239]")
7.27
>>> readout_number("AAAAATAAAATGATGGTGCACATAAAGTATGGTTAC")
11.3
>>> readout_number("ATGAACATTTATAAATGTACTCACATATATATATTT [XGTACX_site6692]")
7.02
>>> readout_number("CGAAATCATATGTACACACACATATATATATATATA [CACACA_site2151]")
9.32
>>> readout_number("AAAAAAAAATATATATATATATATATATAATAAAAA [CACACA_negctrl_site639]")
7.48
>>> readout_number("AAATAAGAAAATCATAGTACATAGGAATAGAAGAAC [XGTACX_site3135]")
7.59
>>> readout_number("AGTAATAGTTTGTGCACACTCAAGTATATCATATAT [CACACA_site4034]")
9.56
>>> readout_number("CCATAGATATTTTATACACACATATAATATATTAAT [CACACA_site373]")
7.17
>>> readout_number("AATACGGCAAACATTAAAAAATATAATAACAATAAA [CACACA_negctrl_site868]")
6.96
>>> readout_number("ATATATATATGTTAGGTGCATATATATTTTGTGGAT [GTGCAC_site9964]")
9.6
>>> readout_number("AGGATAAAAGTTATGGTGCATTAACCTATTTAAATA")
10.2
>>> readout_number("TACATGTATAATATAATACACACTATATAATATACA [CACACA_site2239]")
6.92
>>> readout_number("ATTTTTTTCTTAGGAGTGCACTTATATTTATTTTAT")
11.2
>>> readout_number("TTTGGATAAAAAATATGTACACACATATAGATATCT [XGTACX_site5660]")
6.9
>>> readout_number("TGTTAAAAAATGGATGCACACATTAAATAAAAAGTA [CACACA_site1660]")
8.9
>>> readout_number("TATATATAATATACATGTACAAATGTATTTAAAAAT [XGTACX_site6090]")
7.07
>>> readout_number("ATTAGTTTACACATATGTACATATATTACAACAAAA [XGTACX_site275]")
7.34
